Exercise: for every item that follows, state its recorded logP.
# protocolNotes: Log p measurement by shake flask method
# Format: physicochemical
# conditionDetails: octanol / PBS (pH =7.4), triplicate

Give the value of logP reported for the following: "CCN(CC)CCOc1ccc(C(=O)/C=C/c2ccccc2Cl)cc1" 1.63

For the molecule "O=C(/C=C/c1cccc(Cl)c1)c1ccc(OCCN2CCCC2)cc1" , give its reported logP. 1.81

Find the measured logP of "O=C(/C=C/c1ccccc1Cl)c1ccc(OCCN2CCCCC2)cc1" and report it. 1.75

---

# targetOfAssay: AChE (Rattus norvegicus)
# Construct: The brain and serum of Sprague–Dawley rat was used as the resource of AChE and BuChE, respectively
# Sequence (P37136 32-614): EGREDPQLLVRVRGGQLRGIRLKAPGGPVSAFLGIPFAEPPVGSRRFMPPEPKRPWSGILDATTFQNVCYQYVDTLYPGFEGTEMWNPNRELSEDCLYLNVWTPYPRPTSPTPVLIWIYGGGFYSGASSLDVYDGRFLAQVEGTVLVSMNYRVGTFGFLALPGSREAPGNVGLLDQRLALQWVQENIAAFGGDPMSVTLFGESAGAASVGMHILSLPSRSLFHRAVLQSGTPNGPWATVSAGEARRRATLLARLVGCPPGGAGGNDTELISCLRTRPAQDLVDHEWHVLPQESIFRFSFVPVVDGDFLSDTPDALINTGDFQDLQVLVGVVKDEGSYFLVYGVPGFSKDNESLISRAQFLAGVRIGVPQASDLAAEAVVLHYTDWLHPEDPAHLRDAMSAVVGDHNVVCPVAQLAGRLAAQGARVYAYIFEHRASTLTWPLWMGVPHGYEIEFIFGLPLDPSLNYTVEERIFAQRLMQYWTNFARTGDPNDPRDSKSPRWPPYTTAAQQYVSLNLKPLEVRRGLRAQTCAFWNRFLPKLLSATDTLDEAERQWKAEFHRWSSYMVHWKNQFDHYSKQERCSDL
# protocolNotes: Kinetic studies of AChE inhibition (Lineweaver–Burk)
# conditionDetails: read-out: competitive inhibition constant (Ki)
propertyMeasured: Ki (nM)
// note: answer is a bare numeric in nM

Using known records, supply Ki for "O=C(/C=C/c1ccc(Cl)cc1)c1ccc(OCCN2CCCC2)cc1" 380
